# Test system: SK-MEL-5
# Test protocol: NCI tumour cell line growth inhibition, 48 h
Calls of active or inactive are those of the source. No stated cut-off is given here; in the data, active = GI50 up to about 1.1 µM and inactive = higher.
Labels: Y for active, N for inactive

>>> print(df.to_string())
                                   compound  label_class
0  Cc1cc2nc3c(C#N)c(-c4ccccc4)cc(Nc4cccc(C(F)(F)F)c4)n3c2cc1C            N
1  O=C1c2cc3ccccc3cc2C2(c3ccc(Cl)cc3)NCCN12 (centres undefined)            N
2  Cc1ccc(S(=O)(=O)N/N=C(\CCN2CCCC2)CC(c2ccccc2)c2c(O)c3ccccc3oc2=O)cc1 (centres undefined)            N
3  COCCOC(=O)c1c(C)[n+]([O-])c2cc(Cl)c(Cl)cc2[n+]1[O-]            N
4   O=S(=O)(c1ccc(/N=N/O)nc1)c1ccc2ccccc2c1            N
5  Cc1cc(C)nc(NS(=O)(=O)c2ccc(Nc3c4ccccc4nc4c(C(=O)Nc5ccc(S(=O)(=O)N=C(N)N)cc5)cccc34)cc2)n1            N
6       CS(=O)(=O)C(=Cc1ccccc1Cl)S(C)(=O)=O            N
7  O=C(Nc1ccccc1F)c1cc2ccc(O)cc2o/c1=N\c1cccc(C(F)(F)F)c1            N
8  CN(Cc1cnc2nc(N)nc(N)c2n1)c1ccc(C(=O)NC(CCC(=O)O)C(=O)O)c2ccccc12 (centres undefined)            Y

###

# Test system: COLO 205
# Test protocol: NCI tumour cell line growth inhibition, 48 h
Calls of active or inactive are those of the source. No stated cut-off is given here; in the data, active = GI50 up to about 1.1 µM and inactive = higher.
Parameter: GI50. Scope: all listed entries.
Quantity name: GI50

Compound	Target of assay	Quantity name	Observed result
C=C1C(=O)O[C@@H]2C[C@]3(C)CC[C@]4(C)[C@H](CC[C@@H]5[C@@]6(C)CCC(=O)C(C)(C)[C@@H]6CC[C@]54C)[C@H]3[C@H]12 [OCHRACEOLIDE A]	COLO 205	GI50	7.19 µM (inactive)
CCOC(=O)c1cn(CC)c(=O)n2c1nc1ccccc12	COLO 205	GI50	> 100 µM (inactive)
c1ccc(CNc2nncc3[nH]cnc23)cc1	COLO 205	GI50	> 100 µM (inactive)
Cc1cccc(/C=N/NC(=S)N2CCCC2)n1	COLO 205	GI50	0.325 µM (active)
NCCNCC(O)CO (centres undefined)	COLO 205	GI50	> 100 µM (inactive)
NC(=S)N/N=C(\C(=O)Nc1ccc(Cl)c(Cl)c1)C1=NN(c2ccccc2)C(c2cccc([N+](=O)[O-])c2)CC1=O (centres undefined)	COLO 205	GI50	19 µM (inactive)
O=C1CC(c2cccc(F)c2)Nc2cc3c(cc21)OCO3 (centres undefined)	COLO 205	GI50	0.0292 µM (active)
CCO/C=N/NC(=O)CSc1nc2ccc(I)cc2c(=O)n1Cc1ccccc1	COLO 205	GI50	57.4 µM (inactive)
CC1=CC2(O)OC3(CC2=C(C)C)C(C)CCC13 (centres undefined)	COLO 205	GI50	> 100 µM (inactive)
CC1(C)C(N2CCOCC2)CS1(=O)=O (centres undefined)	COLO 205	GI50	> 10 µM (inactive)
Cc1nn(-c2ccccc2)c2nc3c(c(C)nn3-c3ccccc3)c(-c3ccccc3Br)c12	COLO 205	GI50	> 100 µM (inactive)
CSc1cc(Cl)c(C)cc1S(=O)(=O)NC(=O)NNc1ccc(Cl)cc1	COLO 205	GI50	> 100 µM (inactive)
c1ccc(SC2(Sc3ccccc3)CCCC2)cc1	COLO 205	GI50	> 100 µM (inactive)
NS(=O)(=O)c1nnc(NC(=O)CCC(=O)O)s1	COLO 205	GI50	> 100 µM (inactive)
